TARGET_ENTITY: hPAD4 (Homo sapiens)
Sequence (Q9UM07 whole entry): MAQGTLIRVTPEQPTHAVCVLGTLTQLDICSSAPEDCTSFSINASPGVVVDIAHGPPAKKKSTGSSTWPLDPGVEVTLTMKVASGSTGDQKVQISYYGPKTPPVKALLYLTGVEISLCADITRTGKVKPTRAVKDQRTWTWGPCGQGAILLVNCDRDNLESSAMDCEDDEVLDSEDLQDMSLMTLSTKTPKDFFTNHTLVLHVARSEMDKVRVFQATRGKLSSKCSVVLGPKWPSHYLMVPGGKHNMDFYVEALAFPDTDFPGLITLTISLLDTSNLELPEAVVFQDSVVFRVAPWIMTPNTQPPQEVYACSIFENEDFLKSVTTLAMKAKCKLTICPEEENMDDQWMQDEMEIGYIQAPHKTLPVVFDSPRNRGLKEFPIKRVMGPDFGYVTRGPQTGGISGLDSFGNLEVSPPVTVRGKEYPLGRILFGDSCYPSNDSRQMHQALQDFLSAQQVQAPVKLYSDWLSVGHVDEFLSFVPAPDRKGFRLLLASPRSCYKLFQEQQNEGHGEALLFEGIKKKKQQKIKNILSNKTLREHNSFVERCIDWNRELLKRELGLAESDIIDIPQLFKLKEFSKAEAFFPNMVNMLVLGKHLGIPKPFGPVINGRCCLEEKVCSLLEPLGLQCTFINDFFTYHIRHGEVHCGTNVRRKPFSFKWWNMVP
METHOD_SUMMARY: PAD4 inhibition assay, RapidFire mass spectrometry (hPAD4 RFMS)
Assay type: biochemical
PROTOCOL_CONDITIONS: pIC50=-log(IC50); read-out: hPAD4 RFMS pIC50 (converted)
Structures can show the parent of a compound that is named as a salt.
VALUE_TYPE: IC50

IC50 reported for this compound CCn1c(-c2nc3cc(C(=O)N4C[C@H]5CC[C@@H]4[C@@H]5N)cnc3n2C[C@H]2C[C@@](C)(OC)C2)cc2ccc(OC)nc21 : ≤ 1 µM

Consider Cn1c(-c2cc3cccnc3n2CC2CC2)nc2cc(C(=O)N3C[C@@H](N)C[C@H](F)C3)cnc21 . Its measured IC50 is 1 to 10 µM

The recorded IC50 for Cn1c(-c2cc3cccnc3n2CC2CC2)nc2cc(C(=O)N3CC[C@H]4CCN[C@H]4C3)cnc21 (single isomer, unassigned) [Compound I-9, hydrochloride] is 10 to 100 µM
